AntiCD3/CD28 (CD69+ CD4 T cells) repeat 2 values by entry
tested_on: chimeric BTLA of humanised-BTLA mice (human extracellular region, murine transmembrane and signaling … (human; mouse, UniProt Q7TSA3 184-306, limits assumed)
Sequence (Q7TSA3 other isoform, or with tags, fused parts or gaps mutant limits assumed): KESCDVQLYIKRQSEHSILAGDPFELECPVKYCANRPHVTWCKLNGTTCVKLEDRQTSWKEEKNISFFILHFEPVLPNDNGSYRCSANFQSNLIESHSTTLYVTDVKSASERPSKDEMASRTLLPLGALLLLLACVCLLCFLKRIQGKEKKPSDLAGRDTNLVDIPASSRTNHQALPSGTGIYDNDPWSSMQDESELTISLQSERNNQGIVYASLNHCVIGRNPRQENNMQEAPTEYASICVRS
method_description: cell-based or functional assay; also: test concentration or dose not given here
Give your result in % inhibition as a bare value.

Previously resolved entries follow.
6.2 (antibody, IgG1, V domains shown, mIgG1; also called clone 6.2; parent clone 6.2) VH: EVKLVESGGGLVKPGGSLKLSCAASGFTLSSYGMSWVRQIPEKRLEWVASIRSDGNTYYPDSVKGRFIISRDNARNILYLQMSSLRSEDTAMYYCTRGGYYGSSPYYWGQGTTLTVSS VL: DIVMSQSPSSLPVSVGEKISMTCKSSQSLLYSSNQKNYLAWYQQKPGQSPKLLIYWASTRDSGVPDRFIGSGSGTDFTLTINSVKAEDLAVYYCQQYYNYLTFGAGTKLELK    61
7A1 (antibody, IgG1, V domains shown, mIgG1) VH: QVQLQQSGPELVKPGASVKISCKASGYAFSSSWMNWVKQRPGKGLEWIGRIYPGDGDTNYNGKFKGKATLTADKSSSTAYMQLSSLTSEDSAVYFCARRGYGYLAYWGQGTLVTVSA VL: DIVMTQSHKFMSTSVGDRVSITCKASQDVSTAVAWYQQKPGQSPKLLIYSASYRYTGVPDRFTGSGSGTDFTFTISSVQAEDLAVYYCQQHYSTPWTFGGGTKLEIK    38
4H4 (antibody, IgG1, V domains shown, mIgG1) VH: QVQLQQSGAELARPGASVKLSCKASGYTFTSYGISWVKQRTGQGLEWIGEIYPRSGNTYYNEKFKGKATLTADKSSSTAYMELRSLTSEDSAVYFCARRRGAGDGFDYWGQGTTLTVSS VL: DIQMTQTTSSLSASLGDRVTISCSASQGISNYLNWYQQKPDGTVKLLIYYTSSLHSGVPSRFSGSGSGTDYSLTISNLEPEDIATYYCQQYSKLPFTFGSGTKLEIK    52
3A9 (antibody, IgG1, V domains shown, mIgG1) VH: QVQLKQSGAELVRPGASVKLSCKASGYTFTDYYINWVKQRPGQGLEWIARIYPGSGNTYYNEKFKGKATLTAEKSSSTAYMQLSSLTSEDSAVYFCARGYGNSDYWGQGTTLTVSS VL: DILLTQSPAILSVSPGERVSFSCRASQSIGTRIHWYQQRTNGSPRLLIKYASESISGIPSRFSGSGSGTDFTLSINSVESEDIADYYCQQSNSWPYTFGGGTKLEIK    34

Now look at this one.
# input Which AntiCD3/CD28 (CD69+ CD4 T cells) repeat 2 is listed for 2.8.6 (antibody, V domains shown, mouse IgG1k hybridoma antibody; also called clone 2.8.6) VH: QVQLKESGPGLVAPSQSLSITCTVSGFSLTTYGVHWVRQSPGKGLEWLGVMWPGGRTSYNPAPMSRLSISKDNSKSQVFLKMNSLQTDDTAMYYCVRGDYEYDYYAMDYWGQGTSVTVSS VL: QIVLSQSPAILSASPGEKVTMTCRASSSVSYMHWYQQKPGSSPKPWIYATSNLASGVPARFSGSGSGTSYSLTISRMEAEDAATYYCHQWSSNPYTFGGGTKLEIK ?
# output 67
